These entries and their values trace back to the kinase profiling compilation of Christmann-Franck et al. (2016).

- test_system: UniProtKB O15146
- Sequence (O15146 whole entry, looked up): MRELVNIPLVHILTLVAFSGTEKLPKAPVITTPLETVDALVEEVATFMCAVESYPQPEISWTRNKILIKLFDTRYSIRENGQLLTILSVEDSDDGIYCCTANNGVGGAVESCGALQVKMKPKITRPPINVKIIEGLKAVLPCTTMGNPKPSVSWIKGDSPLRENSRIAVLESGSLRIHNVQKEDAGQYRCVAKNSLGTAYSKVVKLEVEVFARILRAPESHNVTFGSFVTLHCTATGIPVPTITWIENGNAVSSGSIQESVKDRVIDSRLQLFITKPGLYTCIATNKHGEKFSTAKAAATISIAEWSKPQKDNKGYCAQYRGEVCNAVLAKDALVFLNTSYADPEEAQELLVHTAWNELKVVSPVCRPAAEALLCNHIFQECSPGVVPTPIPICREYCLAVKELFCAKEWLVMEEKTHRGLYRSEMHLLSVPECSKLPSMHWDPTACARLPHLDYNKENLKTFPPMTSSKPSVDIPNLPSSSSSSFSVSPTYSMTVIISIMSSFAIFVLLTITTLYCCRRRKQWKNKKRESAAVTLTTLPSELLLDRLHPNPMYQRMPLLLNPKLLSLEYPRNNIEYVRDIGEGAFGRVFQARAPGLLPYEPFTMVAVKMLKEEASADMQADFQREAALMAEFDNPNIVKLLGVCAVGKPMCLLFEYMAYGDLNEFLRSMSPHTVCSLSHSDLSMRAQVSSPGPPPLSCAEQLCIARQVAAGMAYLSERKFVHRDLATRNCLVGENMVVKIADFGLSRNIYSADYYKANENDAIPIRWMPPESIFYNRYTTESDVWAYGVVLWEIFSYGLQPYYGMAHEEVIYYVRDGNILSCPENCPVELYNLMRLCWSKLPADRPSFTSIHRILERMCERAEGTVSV
- test_name: radiometric filter-binding kinase assay, Kinase HotSpot
- condition_details: compound 0.5 µM; ATP 10 µM
property_name: residual activity (%)
// units = %; emit number, no label

# input Give reported residual activity value for `CC(C)(C)c1cc(C=C(C#N)C#N)cc(Br)c1O`
# output 103

# input Give reported residual activity value for `COc1ccc(S(=O)(=O)N(CCO)c2ccccc2CN(C)C/C=C/c2ccc(Cl)cc2)cc1`
# output 94.7

# input Give reported residual activity value for `CO[C@@H]1[C@H](N(C)C(=O)c2ccccc2)C[C@H]2O[C@]1(C)n1c3ccccc3c3c4c(c5c6ccccc6n2c5c31)C(=O)NC4`
# output 44.6

# input Give reported residual activity value for `CN(C)c1ccc(/C=C2\C(=O)Nc3ccccc32)cc1`
# output 96.4

# input Give reported residual activity value for `COc1ccc(Cl)cc1NC(=O)Nc1cc(C)nc2ccccc12`
# output 93.3
